For each record, write down the corresponding TGI.
- Test system: IGROV1 ovarian
- Experiment Description: NCI tumour cell line growth inhibition, 48 h

Value of TGI reported for the compound CCCCN1CCCC[C@@H]1C(=O)N[C@H](C(=O)N(C)[C@H](C[C@@H](OC(C)=O)c1nc(C(=O)NC2CCC(C(=O)OC)CC2)cs1)C(C)C)C(C)C (stereo partly drawn) is > 25 µM

Value of TGI reported for the compound COc1cc2c3cc1Oc1c(O)c(OC)cc4c1C(Cc1ccc(O)c(c1)Oc1ccc(cc1)CC3N(C)CC2)N(C)CC4 (stereo not drawn) is 56.1 µM

Value of TGI reported for the compound `COc1cc(CSc2ccc(O)cc2)cc(OC)c1OC` is > 100 µM

Value of TGI reported for the compound `CC1=C2CC(C)(C)/C=C\C(=O)/C(C)=C\C3=C[C@H](C)C[C@]3(O2)C1=O` is 5.44 µM

Value of TGI reported for the compound CO[C@H]1C=CO[C@@]2(C)Oc3c(C)c(O)c4c(O)c(c(CN5CCN(C)CC5)c(O)c4c3C2=O)NC(=O)/C(C)=C\C=C[C@H](C)[C@H](O)C(C)[C@@H](O)C(C)[C@H](OC(C)=O)[C@@H]1C (stereo partly drawn) is > 100 µM

Value of TGI reported for the compound N#CC1(C#N)NC(c2ccccc2)C(C#N)(C#N)NC1c1ccccc1 (stereo not drawn) is > 100 µM

Value of TGI reported for the compound `COC(=O)c1ccc2c(c1)C(=O)c1c-2n(CCCCl)c(=O)c2cc([N+](=O)[O-])ccc12` is > 100 µM

Value of TGI reported for the compound `Cc1nc(SCC(=O)Nc2ccc(Cl)cc2)c2sc(=S)n(-c3ccccc3)c2n1` is > 10 µM
